System: TK-10 renal
Assay: NCI tumour cell line growth inhibition, 48 h
Measured metric: GI50

// solved cases for GI50 follow
[[record]]
compound = "Cc1ccnc2[nH]c(-c3cccc4ccccc34)cc(=O)c12"
measured_metric = "GI50"
endpoint_value = "25.8 µM"

[[record]]
compound = "N#Cc1c(-c2ccc(Cl)cc2)cc(-c2cc(O)ccc2O)nc1N"
measured_metric = "GI50"
endpoint_value = "4.08 µM"

[[record]]
compound = "Nc1c(C(=O)Nc2ccccc2)sc2nc3c(cc12)C(O)CCC3 (stereo not drawn)"
measured_metric = "GI50"
endpoint_value = "> 100 µM"

[[record]]
compound = "O=c1c2c3c(sc2n2c(CCl)nnc2n1Cc1ccccc1)CCCC3"
measured_metric = "GI50"
endpoint_value = "5.25 µM"

[[record]]
compound = "c1cc2ccc3cc2cc1CNCCN1CCNCc2ccc4ccc(cc4c2)CNCCN(CCNC3)CCNCc2ccc3ccc(cc3c2)CNCC1"
measured_metric = "GI50"
endpoint_value = "18.6 µM"

[[record]]
compound = "CC12CC[C@@H]3c4cc5c(cc4CC[C@H]3[C@@H]1CCC2O)oc1cc(F)ccc15 (stereo partly drawn)"
measured_metric = "GI50"
endpoint_value = "15.6 µM"

[[record]]
compound = "Cn1ccnc1C(=O)/C=C/c1ccc(C(=O)Nc2ccccc2F)cc1"
measured_metric = "GI50"
endpoint_value = "3.84 µM"

[[record]]
compound = "O=C1C(C(Nc2ccccc2)c2ccccc2)=C([O-])c2ccccc21.O=C1C(C(Nc2ccccc2)c2ccccc2)=C([O-])c2ccccc21.[Co+2] (stereo not drawn)"
measured_metric = "GI50"
endpoint_value = "5.48 µM"


Record GI50 per entry; entries follow.
1. CCCCCCC/C(=N\N=C(N)N)c1ccc(O)cc1
2. O=c1c2sc3ccccc3c2nnn1-c1ccc(F)c(Cl)c1
3. CCCCCC/C=C\CCCCCCCCCc1cc(O)cc(OC)c1O
4. COc1ccc(OC)c(Nc2nc3ccccc3c3c2-c2ccc(OC)cc2C3=O)c1
5. C=CCCCC(=O)CCC(=O)OCC1O[C@@H](O[C@@H]2C(O)[C@@H](OC(C)=O)C(C)O[C@H]2O[C@H](CC=C)CCCCC)C(O)[C@@H](OC(=O)/C(C)=C/C)[C@@H]1OC(=O)/C=C/c1ccccc1 (stereo partly drawn)

Resp:
["5.53 µM", "4.63 µM", "0.664 µM", "> 100 µM", "0.106 µM"]
